B1: VH:VL chains; a variant is named by its letters at X, in order (parent)
chain 1: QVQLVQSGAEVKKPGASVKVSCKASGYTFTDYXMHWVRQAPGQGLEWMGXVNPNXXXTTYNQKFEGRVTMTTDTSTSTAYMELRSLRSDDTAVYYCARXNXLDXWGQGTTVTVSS
chain 2: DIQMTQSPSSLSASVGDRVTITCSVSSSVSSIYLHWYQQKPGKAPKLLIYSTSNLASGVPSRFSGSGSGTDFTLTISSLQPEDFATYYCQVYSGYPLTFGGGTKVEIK

Variants of: B1
ASSAY TEXT: yeast display scFab, FACS + sequencing
TEST CONDITIONS: with MET
The other results are listed elsewhere or left out. The true hit rate is not given.
PROPERTY: antigen binding call

{"RESIDUE CHANGE": "YKERDVGV", "PROPERTY": "antigen binding call", "RESULT": "no binding"}
{"RESIDUE CHANGE": "VRTEDSWA", "PROPERTY": "antigen binding call", "RESULT": "no binding"}
{"RESIDUE CHANGE": "YKGKGVGV", "PROPERTY": "antigen binding call", "RESULT": "binds"}
{"RESIDUE CHANGE": "DKGGSAVV", "PROPERTY": "antigen binding call", "RESULT": "no binding"}

Please give the measured antigen binding call for this variant: YKGRGVVV
binds

Please give the measured antigen binding call for this variant: DRAGDDVY
no binding

Please give the measured antigen binding call for this variant: YRKEAAAA
binds

Please give the measured antigen binding call for this variant: FRAGGAGV
binds

Please give the measured antigen binding call for this variant: YKGRGALS
binds

Please give the measured antigen binding call for this variant: FRAGDAGV
binds

Please give the measured antigen binding call for this variant: VKARGSGV
binds

Please give the measured antigen binding call for this variant: YAREAALS
no binding

Values compiled from the emibetuzumab library of Makowski et al. (2022).
